System: human hepatocellular carcinoma (HepG-2)
Assay: SRB cytotoxicity assay, HepG-2
Type: cell-based
Settings: HepG2, HepG-2 cells
value_type: IC50 (µM)
The response must be a number in µM with no trailing unit.

Recorded IC50, per entry:
compound	value_type	assay_value
CCC(C)C(NC(=O)c1ccc(Nc2ncnc3c2cnn3-c2ccccc2)cc1)C(=O)O (stereo not shown)	IC50	9.09
O=C(O)CNC(=O)c1ccc(Nc2ncnc3c2cnn3-c2ccccc2)cc1	IC50	15.5
O=C(NC(Cc1c[nH]c2ccccc12)C(=O)O)c1ccc(Nc2ncnc3c2cnn3-c2ccccc2)cc1 (stereo not shown)	IC50	25.5
N=C(N)NCCCC(NC(=O)c1ccc(Nc2ncnc3c2cnn3-c2ccccc2)cc1)C(=O)O (stereo not shown)	IC50	5.12
CC(NC(=O)c1ccc(Nc2ncnc3c2cnn3-c2ccccc2)cc1)C(=O)O (stereo not shown)	IC50	19.2

Please look up its IC50: `O=C(c1ccc(Nc2ncnc3c2cnn3-c2ccccc2)cc1)n1nnc2ccccc21`
13

Please look up its IC50: O=C(NC(Cc1ccccc1)C(=O)O)c1ccc(Nc2ncnc3c2cnn3-c2ccccc2)cc1 (stereo not shown)
13.2

Please look up its IC50: O=C(NC(CS)C(=O)O)c1ccc(Nc2ncnc3c2cnn3-c2ccccc2)cc1 (stereo not shown)
10.2

Please look up its IC50: CC(C)C(NC(=O)c1ccc(Nc2ncnc3c2cnn3-c2ccccc2)cc1)C(=O)O (stereo not shown)
12.2

Please look up its IC50: O=C(NC(Cc1ccc(O)cc1)C(=O)O)c1ccc(Nc2ncnc3c2cnn3-c2ccccc2)cc1 (stereo not shown)
14.2

Please look up its IC50: O=C(O)C1CCCN1C(=O)c1ccc(Nc2ncnc3c2cnn3-c2ccccc2)cc1 (stereo not shown)
10.3

Please look up its IC50: CSCCC(NC(=O)c1ccc(Nc2ncnc3c2cnn3-c2ccccc2)cc1)C(=O)O (stereo not shown)
17

Please look up its IC50: CN(Cc1cnc2nc(N)nc(N)c2n1)c1ccc(C(=O)N[C@@H](CCC(=O)O)C(=O)O)cc1 [Methotrexate, methotrexate, reference compound]
800

Please look up its IC50: O=C(NC(Cc1c[nH]cn1)C(=O)O)c1ccc(Nc2ncnc3c2cnn3-c2ccccc2)cc1 (stereo not shown)
9.26

Please look up its IC50: COc1cccc2c1C(=O)c1c(O)c3c(c(O)c1C2=O)C[C@@](O)(C(=O)CO)C[C@@H]3O[C@H]1C[C@H](N)[C@H](O)[C@H](C)O1 [Doxorubicin, reference compound]
4.6

Please look up its IC50: O=C(O)CCC(NC(=O)c1ccc(Nc2ncnc3c2cnn3-c2ccccc2)cc1)C(=O)O (stereo not shown)
16

Entry source: paper PMC9673804
